target-system: T1, human GIPR (human, UniProt P48546 22-466)
T1 sequence (looked up): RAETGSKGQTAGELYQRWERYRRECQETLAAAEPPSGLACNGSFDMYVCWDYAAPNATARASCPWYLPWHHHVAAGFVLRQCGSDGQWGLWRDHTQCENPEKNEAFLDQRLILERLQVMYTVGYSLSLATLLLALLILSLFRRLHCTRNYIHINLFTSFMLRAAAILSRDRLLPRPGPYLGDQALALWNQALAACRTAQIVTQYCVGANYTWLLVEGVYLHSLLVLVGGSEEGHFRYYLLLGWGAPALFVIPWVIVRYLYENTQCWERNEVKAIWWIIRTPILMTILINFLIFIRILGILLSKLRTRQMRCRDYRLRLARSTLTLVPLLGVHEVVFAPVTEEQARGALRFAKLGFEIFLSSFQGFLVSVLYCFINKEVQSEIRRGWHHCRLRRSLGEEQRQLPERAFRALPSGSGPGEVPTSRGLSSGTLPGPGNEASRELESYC
assay-explanation: cell-based or functional assay
Square brackets hold non-standard residues; d marks the D form. Side chains are listed from the residue outwards. Phe(2-F) = N[C@@H](Cc1ccccc1F)C(=O)O; αMeF = C[C@](N)(Cc1ccccc1)C(=O)O; Iva = CC[C@](C)(N)C(=O)O; Oda = not defined here; Aib = CC(C)(N)C(=O)O
endpoint: Agonist activity (EC50), Cre-luc reporter assay (nM)
The reply should be a number in nM, with the unit left off.

Check out these entries, answers already filled in.
binder | units-of-measure | observed-value
H-Y[Aib]EGT[αMeF]TSDK([Gly-Gly-Gly-Gly-Oda])[Aib]I[Aib]LDKQAQ[Iva]EFVRHLLNK[Aib]TRQR[Phe(2-F)]-NH2 (reading uncertain; also: printed as H-Tyr-Aib-Glu-Gly-Thr-αMePhe-Thr-Ser-Asp-Lys(-Gly-Gly-Gly-Gly-Oda)-Aib-Ile-Aib-Leu-Asp-Lys-Gln-Ala-Gln-Iva-Glu-Phe-Val-Arg-His-Leu-Leu-Asn-Lys-Aib-Thr-Arg-Gln-Arg-Phe(2-F)-NH2) | nM | 0.071
H-Y[Aib]EGT[αMeF]TSDK([Gly-Gly-Gly-Gly-Pal])[Aib]K[Aib]LDKQRQ[Iva]EFVRHLLNK[Aib]TRQRY-NH2 | nM | 0.044

Now turn to the next binder.
Lab note: measured Agonist activity (EC50), Cre-luc reporter assay of Me-Y[Aib]EGT[αMeF]TSDK([Gly-Gly-Gly-Gly-Pal])AI[Aib]LEKQRQ[Iva]EFVRHLLNK[Aib]TRQRY-NH2 was 0.04
